Source: PubChem BioAssay (EPA / NIEHS)

test_method_notes: BSK_SAg_SRB: Viability Assessment in the BioMAP Diversity Plus: SAg Assay (AID 2283096);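 note: cells read one day after compound addition; hits may be either gain or loss of signal compared with DMSO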
condition_details: primary human HUVEC with PBMC
Active and inactive are the calls of the source. Rule for the calls: active = hit-call score of the fitted dose curve at least 0.9, where 1 is the maximum; inactive = score below 0.9.
parameter_measured: AC50

Worked cases, AC50 given:
INSERT INTO results (compound, parameter_measured, assay_result) VALUES
  ('CCOc1cc(C(C)(C)C)ccc1C1COC(c2c(F)cccc2F)=N1 (configuration not stated)', 'AC50', '22.1 µM (active)'),
  ('OC(c1ccc(Cl)cc1)(c1ccc(Cl)cc1)C(Cl)(Cl)Cl', 'AC50', '31.8 µM (active)'),
  ('CC1(C)CON(Cc2ccccc2Cl)C1=O', 'AC50', 'inactive'),
  ('CCNP(=S)(OC)O/C(C)=C/C(=O)OC(C)C (configuration not stated)', 'AC50', 'inactive'),
  ('CCNC(=O)NC(=O)C(C#N)=NOC', 'AC50', 'inactive'),
  ('Clc1cccc(C(Cl)(Cl)Cl)n1', 'AC50', 'inactive');

Field: next compound
Req: Given Cc1ccc(N=CN(C)C=Nc2ccc(C)cc2C)c(C)c1 , respond with its AC50.
Resp: 33.2 µM (active)

----------
assayed_target: rat CYP2A2, Cyp2a2 (gene 24895) (UniProt P15149)
Sequence (P15149 whole entry, looked up): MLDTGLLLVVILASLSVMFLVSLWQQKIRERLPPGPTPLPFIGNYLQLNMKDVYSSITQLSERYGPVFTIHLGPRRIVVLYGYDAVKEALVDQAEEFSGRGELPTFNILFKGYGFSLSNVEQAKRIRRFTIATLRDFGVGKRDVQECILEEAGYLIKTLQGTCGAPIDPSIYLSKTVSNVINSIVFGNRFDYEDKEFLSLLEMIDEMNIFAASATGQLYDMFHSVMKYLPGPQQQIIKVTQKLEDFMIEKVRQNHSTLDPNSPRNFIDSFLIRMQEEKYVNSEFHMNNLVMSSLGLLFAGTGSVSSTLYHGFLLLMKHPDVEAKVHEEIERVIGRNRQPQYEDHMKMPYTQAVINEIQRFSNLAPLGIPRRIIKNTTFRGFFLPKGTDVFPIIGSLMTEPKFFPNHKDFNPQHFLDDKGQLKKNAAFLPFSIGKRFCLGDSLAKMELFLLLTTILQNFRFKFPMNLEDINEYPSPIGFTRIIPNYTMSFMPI
test_method_notes: NVS_ADME_rCYP2A2: NovaScreen (NVS) CYP450-related Enzyme Activity (ADME) Assay for rat CYP2A2 (AID 2283116)
Activity calls are given as the source filed them. How the source made its calls: active means hit-call score of the fitted dose curve at least 0.9, where 1 is the maximum; inconclusive means response in the unintended direction; inactive means score below 0.9.
Valid outcomes are listed here; reply with one: TRUE = active, FALSE = inactive

Req: State the result this test recorded for CCCCC(C#N)(Cn1cncn1)c1ccc(Cl)cc1 (stereo unspecified) .
Resp: TRUE

Req: State the result this test recorded for CC(C)C1(C)N=C(c2ncccc2C(=O)O)NC1=O (stereo unspecified) .
Resp: TRUE

Req: State the result this test recorded for CCNP(=S)(OC)O/C(C)=C/C(=O)OC(C)C (stereo unspecified) .
Resp: TRUE

Req: State the result this test recorded for CC1(C)CCC(=Cc2ccc(Cl)cc2)C1(O)Cn1cncn1 (stereo unspecified) .
Resp: TRUE

Req: State the result this test recorded for Cc1c(COC(=O)[C@@H]2[C@H](/C=C(\Cl)C(F)(F)F)C2(C)C)cccc1-c1ccccc1 .
Resp: FALSE

Req: State the result this test recorded for CCN(CC)C(=O)C(C)Oc1cccc2ccccc12 (stereo unspecified) .
Resp: TRUE

----------
assayed_target: Glucocorticoid receptor (Homo sapiens)
test_method_notes: NVS_NR_hGR: NovaScreen (NVS) Nuclear Receptor Binding Assay for human Glucocorticoid Receptor (GR) (AID 2283363)
Results filed as inconclusive are left out. Calls of active or inactive are those of the source. How the source made its calls: active means hit-call score of the fitted dose curve at least 0.9, where 1 is the maximum; inconclusive means response in the unintended direction; inactive means score below 0.9.
Valid outcomes are listed here; reply with one: active, inactive

Req: State the result this test recorded for CCCN(CC)CC1COC2(CCC(C(C)(C)C)CC2)O1 (configuration not stated) .
Resp: inactive

Req: State the result this test recorded for CC1(C)C(C=C(Cl)Cl)C1C(=O)OC(C#N)c1cccc(Oc2ccccc2)c1 (configuration not stated) .
Resp: inactive

Req: State the result this test recorded for OC(c1ccc(Cl)cc1)(c1ccc(Cl)cc1)C(Cl)(Cl)Cl .
Resp: active

Req: State the result this test recorded for COP(=S)(OC)Oc1ccc([N+](=O)[O-])c(C)c1 .
Resp: active

Req: State the result this test recorded for CCCCOCN(C(=O)CCl)c1c(CC)cccc1CC .
Resp: active

Req: State the result this test recorded for CC(C)Oc1cccc(NC(=O)c2ccccc2C(F)(F)F)c1 .
Resp: inactive

Req: State the result this test recorded for N#Cc1c[nH]cc1-c1cccc2c1OC(F)(F)O2 .
Resp: active

Req: State the result this test recorded for CCN(CC)c1nc(C)cc(OP(=S)(OC)OC)n1 .
Resp: active

Req: State the result this test recorded for CC(C)C1(C)N=C(c2ncccc2C(=O)O)NC1=O (configuration not stated) .
Resp: inactive

Req: State the result this test recorded for N#Cc1c(Cl)cccc1Cl .
Resp: inactive

Req: State the result this test recorded for CCCCC(O)(Cn1cncn1)c1ccc(Cl)cc1Cl (configuration not stated) .
Resp: active

Req: State the result this test recorded for CCCCC(C#N)(Cn1cncn1)c1ccc(Cl)cc1 (configuration not stated) .
Resp: inactive

----------
Read-out: Heat shock 70 kDa protein 1 (HSPA1A), gene 3303
test_method_notes: LTEA_HepaRG_HSPA1A: Life Technologies and Expression Analysis (LTEA) Assay for Heat shock 70 kDa protein 1 (HSPA1A) using HepaRG (AID 2283502)
condition_details: mRNA level, 48 h; actives raise or lower the signal
The source made the active and inactive calls. How the source made its calls: active means hit-call score of the fitted dose curve at least 0.9, where 1 is the maximum; inactive means score below 0.9.
Valid outcomes are listed here; reply with one: yes (1) for active, no (0) for inactive

Req: State the result this test recorded for CCCCC(O)(Cn1cncn1)c1ccc(Cl)cc1Cl (stereo unspecified) .
Resp: yes (1)

Req: State the result this test recorded for O=c1n(Cl)c(=O)n(Cl)c(=O)n1Cl .
Resp: no (0)

Req: State the result this test recorded for Nc1c(Cl)c(F)nc(OCC(=O)O)c1Cl .
Resp: no (0)

Req: State the result this test recorded for CNC(=O)N(C)c1nnc(C(C)(C)C)s1 .
Resp: no (0)

Req: State the result this test recorded for N#Cc1c(Cl)cccc1Cl .
Resp: no (0)

Req: State the result this test recorded for CS(=O)(=O)c1ccc(C(=O)C2C(=O)CCCC2=O)c([N+](=O)[O-])c1 .
Resp: no (0)

Req: State the result this test recorded for CCC(C)n1c(=O)[nH]c(C)c(Br)c1=O (stereo unspecified) .
Resp: no (0)

Req: State the result this test recorded for CCN(CC)c1nc(C)cc(OP(=S)(OC)OC)n1 .
Resp: no (0)

Req: State the result this test recorded for Cc1cnc(C2=NC(C)(C(C)C)C(=O)N2)c(C(=O)O)c1 (stereo unspecified) .
Resp: no (0)

Req: State the result this test recorded for COC(=O)NC(=S)Nc1ccccc1NC(=S)NC(=O)OC .
Resp: no (0)

Req: State the result this test recorded for Clc1cccc(C(Cl)(Cl)Cl)n1 .
Resp: no (0)

Req: State the result this test recorded for CCOP(=S)(OCC)Oc1nc(Cl)n(C(C)C)n1 .
Resp: no (0)

Req: State the result this test recorded for CS(=O)(=O)c1cc(C(F)(F)F)ccc1C(=O)c1cnoc1C1CC1 .
Resp: no (0)

Req: State the result this test recorded for CNC(=O)Oc1cccc2ccccc12 .
Resp: no (0)

Req: State the result this test recorded for Nc1cnn(-c2ccccc2)c(=O)c1Cl .
Resp: no (0)

Req: State the result this test recorded for OC(c1ccc(Cl)cc1)(c1ccc(Cl)cc1)C(Cl)(Cl)Cl .
Resp: yes (1)

Req: State the result this test recorded for CC(C)Oc1cccc(NC(=O)c2ccccc2C(F)(F)F)c1 .
Resp: no (0)

Req: State the result this test recorded for N#Cc1c[nH]cc1-c1cccc2c1OC(F)(F)O2 .
Resp: no (0)

Req: State the result this test recorded for Cc1ccc(N=CN(C)C=Nc2ccc(C)cc2C)c(C)c1 .
Resp: no (0)

Req: State the result this test recorded for CC1(C)C(C(=O)OC(C#N)c2cccc(Oc3ccccc3)c2)C1(C)C (stereo unspecified) .
Resp: no (0)

Req: State the result this test recorded for COP(=S)(OC)Oc1ccc([N+](=O)[O-])c(C)c1 .
Resp: no (0)

Req: State the result this test recorded for CC(C)C1(C)N=C(c2ncccc2C(=O)O)NC1=O (stereo unspecified) .
Resp: no (0)

Req: State the result this test recorded for Nc1c(Cl)c(Cl)nc(C(=O)O)c1Cl .
Resp: no (0)

Req: State the result this test recorded for CCOc1nc(F)cc2nc(S(=O)(=O)Nc3c(Cl)cccc3Cl)nn12 .
Resp: no (0)

Req: State the result this test recorded for O=C(Nc1ccccc1-c1ccc(Cl)cc1)c1cccnc1Cl .
Resp: no (0)

Req: State the result this test recorded for CC1(C)CCC(=Cc2ccc(Cl)cc2)C1(O)Cn1cncn1 (stereo unspecified) .
Resp: no (0)

----------
Read-out: TIMP metallopeptidase inhibitor 1 (TIMP1), TIMP1 (gene 7076)
test_method_notes: BSK_hDFCGF_TIMP1: BioMAP Diversity Plus: hDFCGF Assay for TIMP metallopeptidase inhibitor 1 (TIMP1) Biomarker Activity (AID 2283062)
condition_details: primary human foreskin fibroblasts; actives raise or lower the signal
Activity calls are given as the source filed them. Rule for the calls: active = hit-call score of the fitted dose curve at least 0.9, where 1 is the maximum; inactive = score below 0.9.
Valid outcomes are listed here; reply with one: yes (1) for active, no (0) for inactive

Req: State the result this test recorded for Clc1nc(Cl)nc(Nc2ccccc2Cl)n1 .
Resp: no (0)

Req: State the result this test recorded for Cc1cnc(C2=NC(C)(C(C)C)C(=O)N2)c(C(=O)O)c1 (stereo not drawn) .
Resp: no (0)

Req: State the result this test recorded for Cc1c(COC(=O)[C@@H]2[C@H](/C=C(\Cl)C(F)(F)F)C2(C)C)cccc1-c1ccccc1 .
Resp: no (0)

Req: State the result this test recorded for CC(C)NC(=O)N1CC(=O)N(c2cc(Cl)cc(Cl)c2)C1=O .
Resp: no (0)

Req: State the result this test recorded for CC(C)N1C(=O)c2ccccc2NS1(=O)=O .
Resp: yes (1)

Req: State the result this test recorded for COc1cc(Cl)c(OC)cc1Cl .
Resp: no (0)

Req: State the result this test recorded for Cc1nc(N(C)C)nc(OC(=O)N(C)C)c1C .
Resp: no (0)

Req: State the result this test recorded for COCc1cnc(C2=NC(C)(C(C)C)C(=O)N2)c(C(=O)O)c1 (stereo not drawn) .
Resp: no (0)

Req: State the result this test recorded for N#Cc1c(Cl)cccc1Cl .
Resp: no (0)

Req: State the result this test recorded for COC(=O)c1c(C(F)F)nc(C(F)(F)F)c(C2=NCCS2)c1CC(C)C .
Resp: no (0)

Req: State the result this test recorded for COP(=S)(OC)SCn1nnc2ccccc2c1=O .
Resp: no (0)

Req: State the result this test recorded for O=c1n(Cl)c(=O)n(Cl)c(=O)n1Cl .
Resp: no (0)

Req: State the result this test recorded for C=C(C)CN(CC)c1c([N+](=O)[O-])cc(C(F)(F)F)cc1[N+](=O)[O-] .
Resp: no (0)
